Test system: HPV-16
Experiment: qPCR sensitivity against HPV-HNSCC tumor samples diluted among 10 ng normal human DNA
Conditions: tumor DNA dilution, fraction of 32 samples
observedProperty: Sensitivity, 3 cells
Reply briefly: the number, and no unit.

Look at this molecule and give its reported Sensitivity, 3 cells. BR E1-5: HPV-16 E1 region primer/probe set, SEQ ID NO: 40-42 (same as SEQ ID NO: 1-3) (nucleic acid, chemistry not given here) DNA 1: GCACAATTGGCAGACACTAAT DNA 2: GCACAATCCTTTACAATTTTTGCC DNA 3: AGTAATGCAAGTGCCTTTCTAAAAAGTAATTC
0.438

Where these numbers come from: patent US20200399712A1
